system: Hepatic stellate cell strain LX-2; experiment: In vitro inhibition of hepatic fibrosis: expression of LX-2 cell activation marker α-SMA (Western Blot, α-SMA/β-actin); assay type: cell-based, human; conditions: LX-2 cells, 1 μM, 48 hours, negative control = 100%
*1 amine or outer side, *2 acyl side, *3 side chain or, on linkers, in order; H or OH if unused. Primed or numbered codes have the meaning given here. Where no end group is shown, it is not given here. Side-chain parts run from the residue outwards. [ ]: non-standard residue; d: D form. The star is where a group is joined. C18 diacid = O=C(O)CCCCCCCCCCCCCCCCC(=O)*; γGlu = O=C(O)[C@H](CCC(=O)[*:2])N[*:1]; Palmitoyl = CCCCCCCCCCCCCCCC(=O)*; PEG2′ = not defined here; Aib = CC(C)(N)C(=O)O
MEASUREMENT_TYPE: Relative expression of α-SMA (α-SMA/β-actin, %)
Provide a numeric answer, followed by its unit.

As a guide, the following entries are already answered.
>  <SUBSTANCE>
His-(D-Ser)-Gln-Gly-Thr-Phe-Thr-Ser-Asp-Tyr-Ser-Lys-Tyr-Leu-Asp-Aib-Lys(PEG2-PEG2-γGlu-CO(CH2)14CH3)-Arg-Ala-Gln-Asp-Phe-Val-Gln-Trp-Leu-Met-Asn-Thr-Gly-Gly-Pro-Ser-Ser-Gly-Ala-Pro-Pro-Pro-Ser-NH2 (H[dS]QGTFTSDYSKYLD[Aib]K([PEG2′-PEG2′-γGlu-Palmitoyl])RAQDFVQWLMNTGGPSSGAPPPS-NH2) [Compound 33]

>  <VALUE_MEASURED>
95.45%

$$$$
>  <SUBSTANCE>
His-(D-Ser)-Gln-Gly-Thr-Phe-Thr-Ser-Asp-Tyr-Ser-Lys-Tyr-Leu-Asp-Glu-Lys-Ala-Ala-Lys(PEG2-PEG2-γGlu-CO(CH2)16CO2H)-Glu-Phe-Ile-Glu-Trp-Leu-Leu-Arg-Ala-NH2 (H[dS]QGTFTSDYSKYLDEKAAK([PEG2′-PEG2′-γGlu-C18 diacid])EFIEWLLRA-NH2) [Compound 18]

>  <VALUE_MEASURED>
75.60%

$$$$

Relative expression of α-SMA (α-SMA/β-actin, %) for His-(D-Ser)-Gln-Gly-Thr-Phe-Thr-Ser-Asp-Lys(PEG2-PEG2-CO(CH2)14CH3)-Ser-Lys-Tyr-Leu-Asp-Aib-Arg-Arg-Ala-Gln-Asp-Phe-Val-Gln-Trp-Leu-Met-Asn-Thr-Gly-Gly-Pro-Ser-Ser-Gly-Ala-Pro-Pro-Pro-Ser-NH2 (H[dS]QGTFTSDK([PEG2′-PEG2′-Palmitoyl])SKYLD[Aib]RRAQDFVQWLMNTGGPSSGAPPPS-NH2) [Compound 31] ?
86.89%

All figures here come from patent US11197914B2.
